Values were extracted from paper PMC7382281.

- SYSTEM_UNDER_TEST: AceR (Acinetobacter chlorhexidine efflux protein regulator) (Acinetobacter baumannii, UniProt P0DUU5)
- Sequence (P0DUU5 90-297): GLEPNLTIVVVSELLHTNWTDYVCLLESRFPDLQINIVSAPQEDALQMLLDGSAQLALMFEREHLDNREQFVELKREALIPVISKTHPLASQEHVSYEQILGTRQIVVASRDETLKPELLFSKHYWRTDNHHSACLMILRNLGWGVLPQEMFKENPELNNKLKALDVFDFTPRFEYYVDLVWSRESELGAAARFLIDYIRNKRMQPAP
MEASURE: Kd

# input Any idea what its Kd is? The compound is [H]/N=C(\N/C(=N/[H])NCCCCCCNC(=N)NC(=N)Nc1ccc(Cl)cc1)Nc1ccc(Cl)cc1
# output ~16 µM
